Each item that follows carries a reported kon.
system_tested: T1, extracellular domain (ECD) of human epidermal growth factor receptor 2 (HER2) (Homo sapiens, UniProt P04626)
T1 construct: human epidermal growth factor receptor 2 (HER2), extracellular domain; also called HER2/ECD
assay_protocol: SPR; BIAcore T200; HER2/ECD immobilised on a CM5 chip by amine coupling to 1000 RU; IgG flowed in PBST (0.05% Tween 20) at 30 uL/min; regeneration 10 mM glycine pH 1.5; global fit to a 1:1 binding model
test_parameters: both partners purified
property: kon (M⁻¹ s⁻¹)

[[record]]
binder = "GH2-66 IgG (antibody, V domains shown, source: HEK293-F, transient transfection, purified (Protein A, Superdex 200)) VH: EVQLVESGGGLVQPGGSLRLSCAASGFTIGNWGIHWVRQAPGKGLEWVAYIWPYWGFTYYADSVKGRFTISADTSKNTAYLQMNSLRAEDTAVYYCARFLDWNLLWMDYWGQGTLVTVSS VL: DIQMTQSPSSLSASVGDRVTITCRASQDVYSYVAWYQQKPGKAPKLLISYASGLYSGVPSRFSGSGSGTDFTLTISSLQPEDFATYYCQQYYNSPITFGQGTKVEIK"
measure_unit = "M⁻¹ s⁻¹"
recorded_value = "6.03e+06"

[[record]]
binder = "GH2-16 IgG (antibody, V domains shown, source: HEK293-F, transient transfection, purified (Protein A, Superdex 200)) VH: EVQLVESGGGLVQPGGSLRLSCAASGFTINNWGIHWVRQAPGKGLEWVAGIWPFGGYTYYADSVKGRFTISADTSKNTAYLQMNSLRAEDTAVYYCARFDYLNNGGMDYWGQGTLVTVSS VL: DIQMTQSPSSLSASVGDRVTITCRASQDVYSSVAWYQQKPGKAPKLLISYTSYLYSGVPSRFSGSGSGTDFTLTISSLQPEDFATYYCQQYYGGPMTFGQGTKVEIK"
measure_unit = "M⁻¹ s⁻¹"
recorded_value = 85700

[[record]]
binder = "GH2-87 IgG (antibody, V domains shown, source: HEK293-F, transient transfection, purified (Protein A, Superdex 200)) VH: EVQLVESGGGLVQPGGSLRLSCAASGFTISSYGIHWVRQAPGKGLEWVAGIGPFGGFTSYADSVKGRFTISADTSKNTAYLQMNSLRAEDTAVYYCARFLNIHLGWMDYWGQGTLVTVSS VL: DIQMTQSPSSLSASVGDRVTITCRASQDVNNSVAWYQQKPGKAPKLLIFGTRYLYSGVPSRFSGSGSGTDFTLTISSLQPEDFATYYCQQYYNYPLTFGQGTKVEIK"
measure_unit = "M⁻¹ s⁻¹"
recorded_value = 395000

[[record]]
binder = "GH2-7 IgG (antibody, V domains shown, source: HEK293-F, transient transfection, purified (Protein A, Superdex 200)) VH: EVQLVESGGGLVQPGGSLRLSCAASGFTIDDYFIHWVRQAPGKGLEWVAGIGPSWGYTFYADSVKGRFTISADTSKNTAYLQMNSLRAEDTAVYYCARFGHNFVNGMDYWGQGTLVTVSS VL: DIQMTQSPSSLSASVGDRVTITCRASQDVSGWVAWYQQKPGKAPKLLISGTAGLYSGVPSRFSGSGSGTDFTLTISSLQPEDFATYYCQQYYDFPVTFGQGTKVEIK"
measure_unit = "M⁻¹ s⁻¹"
recorded_value = "6.18e+06"

